- System: DU145
- test details: WST-1 cell proliferation assay on DU145
- Assay type: cell-based
- setup conditions: LNCaP minus DU145
Lab note: compare Difference in cell proliferation @ 10 μM (%) (Selectivity) Δ LNCaP − DU145 against 50%. Equal or greater, write 1. Smaller, write 0.

As a guide, the following entries are already answered.
compound: Cc1ncccc1COC12C3=CC(C)CC1CCC2OC3=O (stereo in doubt)
label: 0
--
compound: COc1ccnc(COC23C4=CC(C)CC2CCC3OC4=O)c1 (stereo in doubt)
label: 1
--
compound: COc1ncccc1COC12C3=CC(C)CC1CCC2OC3=O (stereo in doubt)
label: 0

Asked: Quick check: does C[C@@H]1C=C2C(=O)O[C@@H]3CC[C@H](C1)[C@]23O [Galiellalactone, (−)-Galiellalactone] have Difference in cell proliferation @ 10 μM (%) (Selectivity) Δ LNCaP − DU145 greater than or equal to 50%?
Given back: 0

Asked: Quick check: does Cc1cnc(COC23C4=CC(C)CC2CCC3OC4=O)cn1 (stereo in doubt) have Difference in cell proliferation @ 10 μM (%) (Selectivity) Δ LNCaP − DU145 greater than or equal to 50%?
Given back: 0

Asked: Quick check: does C[C@@H]1C=C2C(=O)O[C@@H]3CCC(C1)[C@]23OCc1ccc(N2CCOCC2)nc1 (some centres unmarked) have Difference in cell proliferation @ 10 μM (%) (Selectivity) Δ LNCaP − DU145 greater than or equal to 50%?
Given back: 1

Asked: Quick check: does C[C@@H]1C=C2C(=O)O[C@@H]3CCC(C1)[C@]23OCc1ccc(NC(=O)C(C)(C)C)nc1 (some centres unmarked) have Difference in cell proliferation @ 10 μM (%) (Selectivity) Δ LNCaP − DU145 greater than or equal to 50%?
Given back: 1

---

Difference in cell proliferation @ 10 μM (%) (Selectivity) Δ LNCaP − DU145 reference
- Test system: DU145
- test details: WST-1 cell proliferation assay on DU145
- Type: cell-based
- setup conditions: LNCaP minus DU145
Respond numerically; units are % and should not be typed.

Solved cases (3 shown):
molecule: Cc1ccc(COC23C4=CC(C)CC2CCC3OC4=O)cn1 (stereo in doubt)
target desc: DU145
unit of measure: %
experimental result: 50.3
--
molecule: CC1C=C2C(=O)OC3CCC(C1)C23OCc1ccc(Oc2ccccc2)nc1 (stereo in doubt)
target desc: DU145
unit of measure: %
experimental result: 49.9
--
molecule: COC(=O)c1cccc(COC23C4=CC(C)CC2CCC3OC4=O)n1 (stereo in doubt)
target desc: DU145
unit of measure: %
experimental result: 49

Form: molecule = CC1C=C2C(=O)OC3CCC(C1)C23OCCc1cccnc1 (stereo in doubt) ; Difference in cell proliferation @ 10 μM (%) (Selectivity) Δ LNCaP − DU145 = 49.9
